Test system: SF-268 CNS
PROTOCOL DETAILS: NCI tumour cell line growth inhibition, 48 h
REPORTED PROPERTY: TGI

The cases that follow already have their TGI on record.
INSERT INTO results (molecule, reported_property, test_value) VALUES
  ('CCOC(=O)C12CN(C34CC5CC(CC(C5)C3)C4)CC(C(=O)OCC)(C1=O)C(c1ccccc1)OC2c1ccccc1 (stereo not drawn)', 'TGI', '> 100 µM'),
  ('C/C(O)=C/c1nc2sc(C)c(C)c2c(=O)s1', 'TGI', '> 100 µM'),
  ('COC(=O)[C@@H](COC(=O)/C=C/c1ccc(OC(C)=O)c(OC(C)=O)c1)NC(=O)/C=C/c1ccc(OC(C)=O)c(OC(C)=O)c1', 'TGI', '> 100 µM'),
  ('CC[C@]12C=CCN3CC[C@]4(C(=C(C(=O)OC)C1)Nc1ccccc14)[C@@H]32', 'TGI', '19.3 µM'),
  ('NC1=NC(=O)[C@H](CSCc2ccccc2)N1C(=O)OCc1ccccc1', 'TGI', '> 100 µM'),
  ('CC(=O)N(CCc1ccccc1)C(C)(C#N)c1ccccc1 (stereo not drawn)', 'TGI', '> 100 µM');

Identify measured TGI corresponding to NC(=O)OCc1c(O)c2c(c(O)c1COC(N)=O)C(=O)C=CC2=O
> 100 µM

Identify measured TGI corresponding to Cc1c(O)c(OC2OC(CO)C(O)C(O)C2O)cc2c1CC[C@@H]1C2(C)C(=O)C[C@]2(C)[C@@H]([C@@](C)(O)C(O)CCC(C)(C)O)[C@H](O)C[C@@]12C (stereo partly drawn)
> 100 µM

Identify measured TGI corresponding to O=C1C2=Cc3ccccc3CCN2c2ccc([N+](=O)[O-])cc21
> 100 µM

---

System: CAKI-1 renal
PROTOCOL DETAILS: NCI tumour cell line growth inhibition, 48 h
REPORTED PROPERTY: log10 TGI (log10 of the value in µM)
Values reflect log10 of reported TGI (µM).

INSERT INTO assay_data (compound, tested_system, test_value) VALUES
  ('Cn1cccc1C1CC(=O)N(CCC[Se]C#N)C1=O (stereo not given)', 'CAKI-1 renal', 0.55),
  ('CC(C)c1cc(C(C)C)c(P2(=O)CC3C(Cl)(Cl)C3(C)C2)c(C(C)C)c1 (stereo not given)', 'CAKI-1 renal', 0.98),
  ('O=C(c1no[n+]([O-])c1C(=O)c1csc2ccccc12)c1csc2ccccc12', 'CAKI-1 renal', 0.35),
  ('C[C@@H](Oc1cc(-n2cnc3ccc(OCC4CCN(C)CC4)cc32)sc1C(N)=O)c1ccccc1C(F)(F)F', 'CAKI-1 renal', 0.72),
  ('CC1(C)CC[C@]2(C(=O)O)CCC3(C)C(=CCC4[C@@]5(C)CC[C@H](OC6OCC(O)C(O)C6OC6OC(CO)C(O)C(O)C6O)C(C)(C)C5CC[C@]43C)C2C1 (stereo not given in full)', 'CAKI-1 renal', 0.49),
  ('c1ccc2c(-c3ccnc(-c4c[nH]c5ccccc45)n3)c[nH]c2c1', 'CAKI-1 renal', 1.87);

Identify measured log10 TGI corresponding to C[CH2][Sn]([CH2]C)([O]C(=O)c1cc(OC)c(OC)c(OC)c1)[O][Sn]([CH2]C)([CH2]C)[O]C(=O)c1cc(OC)c(OC)c(OC)c1
1.47

Identify measured log10 TGI corresponding to COc1ccc(OC)c(CC(=O)c2ccc(O)c(C(=O)NCCc3ccc(F)cc3)c2)c1
1.16

Identify measured log10 TGI corresponding to O=C1/C(=C\c2ccccc2)CN(C(=O)c2ccccc2F)C/C1=C\c1ccccc1
1.11
